Test system: K-562 leukemia
Test: NCI tumour cell line growth inhibition, 48 h
So I've got a bunch of molecules here, and I need their TGI values.

In the examples that follow, each entry is paired with its recorded TGI.
molecule="CCOC(=O)CCC(NC(=O)c1ccc(OCc2nc3ccccc3n3cccc23)cc1)C(=O)OCC (stereo not given)" attribute_measured=TGI experimental_result="> 100 µM"
molecule=N/N=C1\CCCc2c1no[n+]2[O-] attribute_measured=TGI experimental_result="> 100 µM"
molecule=NS(=O)(=O)c1ccc(CCN=C=S)cc1 attribute_measured=TGI experimental_result="> 100 µM"
molecule="O=S(CCCl)c1c2ccccc2nc2ccccc12 (stereo not given)" attribute_measured=TGI experimental_result="> 100 µM"

Would you mind listing TGI for each of the following molecules?
1. CCOC(=O)CCC(NC(=O)Cc1ccc(Oc2nc3ccccc3nc2-c2cccs2)cc1)C(=O)OCC (stereo not given)
2. CCN(CC)CCCNc1nc2ccccc2c2[nH]c3ccc(OC)cc3c12
3. COc1cc([N+](=O)[O-])ccc1NC1=CC(=O)CCC1
4. COc1ccc(N2C(=O)C3c4[nH]c5cccc(C)c5c4C4CCC(C(C)(C)C)CC4C3C2=O)cc1 (stereo not given)
5. CCCN(CCC)c1ccc(/C=N/NC(=O)c2cccnc2)c(Cl)c1
6. CCOC(=O)c1c(-c2ccc(OC)cc2)c(C#N)c(=S)n(C2OC(CO)C(O)C(O)C2O)c1-c1ccccc1 (stereo not given)

1. > 100 µM
2. 3.44 µM
3. > 100 µM
4. > 10 µM
5. > 100 µM
6. > 100 µM

====

So I've got a bunch of molecules here, and I need their log10(TGI) values.
Tested on: MALME-3M melanoma
Assay: NCI tumour cell line growth inhibition, 48 h
The common logarithm of TGI in µM is what is listed.

molecule="COC(=O)C1=C(C(=O)OC)C23C=C(C)C1C2=C(C)C1(CC1)[C@@](C)(O)C3=O (some centres not stated)" attribute_measured=log10(TGI) experimental_result=0.33
molecule=COc1ccc([N+](=O)[O-])c(S(=O)(=O)c2ccc(Cl)cc2)n1 attribute_measured=log10(TGI) experimental_result=0.61

Would you mind listing log10(TGI) for each of the following molecules?
1. O=C1C(=O)C(Br)(Br)C(Br)=C1Br
2. COc1cc([C@@H]2c3[nH]c4ccccc4c3C(Nc3ccc([N+](=O)[O-])cc3)[C@H]3COC(=O)N23)cc(OC)c1O (some centres not stated)
3. COc1ccc2c(c1)CCC1C2CC[C@]2(C)/C(=N/OC(=O)Cc3ccccc3)CCC12 (some centres not stated)
4. O=C(/C=C\c1ccc(Cl)cc1Cl)c1cccs1
5. COc1cc(/C=C2\COc3ccc(O)c(O)c3C2=O)cc(OC)c1
6. CC(=O)N=c1ccc2nc3c(cc(N)c4ccccc43)oc-2c1

1.55
0.12
1.57
1.63
0.78
0.45

Would you mind listing log10(TGI) for each of the following molecules?
1. O=C(Cc1ccc(Cl)c(Cl)c1)N(CCc1ccc(Cl)c(Cl)c1)CCN1CCCC1
2. CCOC(=O)c1sc(Nc2ccc(Cl)cc2)nc1C

1. 0.50
2. 0.56

====

Test system: HOP-62 NSCLC
Experiment: NCI tumour cell line growth inhibition, 48 h
attribute measured: GI50

Would you mind listing GI50 for each of the following compounds?
1. CC(=O)Oc1cc2c(cc1OC(C)=O)[C@H]1CC[C@]3(C)[C@@H](OC(C)=O)CC[C@H]3[C@@H]1CC2
2. C=C(C)[C@@H]1CC[C@]2(C)[C@H](CC[C@@H]3[C@H]4[C@H]5OC[C@@]4(CCC5(C)C)CC[C@]32C)[C@@]1(C)CCCN
3. COc1ccc(NC(=O)c2sc3nc(C)c(C(O)c4ccccc4)cc3c2N)cc1 (stereo not given)
4. COc1ccccc1CNCCCN1C(=O)c2ccc3c4c(ccc(c24)C1=O)C(=O)N(CCCNCCCN)C3=O
5. COc1ccc([N+](=O)[O-])c(S(=O)(=O)c2ccc(Cl)cc2)n1

4.81 µM
2 µM
3.67 µM
0.444 µM
16.6 µM

Cited source: PubChem BioAssay (NCI)
